- assayed.system: ENPP1 (Homo sapiens)
- Sequence (P22413 1-925): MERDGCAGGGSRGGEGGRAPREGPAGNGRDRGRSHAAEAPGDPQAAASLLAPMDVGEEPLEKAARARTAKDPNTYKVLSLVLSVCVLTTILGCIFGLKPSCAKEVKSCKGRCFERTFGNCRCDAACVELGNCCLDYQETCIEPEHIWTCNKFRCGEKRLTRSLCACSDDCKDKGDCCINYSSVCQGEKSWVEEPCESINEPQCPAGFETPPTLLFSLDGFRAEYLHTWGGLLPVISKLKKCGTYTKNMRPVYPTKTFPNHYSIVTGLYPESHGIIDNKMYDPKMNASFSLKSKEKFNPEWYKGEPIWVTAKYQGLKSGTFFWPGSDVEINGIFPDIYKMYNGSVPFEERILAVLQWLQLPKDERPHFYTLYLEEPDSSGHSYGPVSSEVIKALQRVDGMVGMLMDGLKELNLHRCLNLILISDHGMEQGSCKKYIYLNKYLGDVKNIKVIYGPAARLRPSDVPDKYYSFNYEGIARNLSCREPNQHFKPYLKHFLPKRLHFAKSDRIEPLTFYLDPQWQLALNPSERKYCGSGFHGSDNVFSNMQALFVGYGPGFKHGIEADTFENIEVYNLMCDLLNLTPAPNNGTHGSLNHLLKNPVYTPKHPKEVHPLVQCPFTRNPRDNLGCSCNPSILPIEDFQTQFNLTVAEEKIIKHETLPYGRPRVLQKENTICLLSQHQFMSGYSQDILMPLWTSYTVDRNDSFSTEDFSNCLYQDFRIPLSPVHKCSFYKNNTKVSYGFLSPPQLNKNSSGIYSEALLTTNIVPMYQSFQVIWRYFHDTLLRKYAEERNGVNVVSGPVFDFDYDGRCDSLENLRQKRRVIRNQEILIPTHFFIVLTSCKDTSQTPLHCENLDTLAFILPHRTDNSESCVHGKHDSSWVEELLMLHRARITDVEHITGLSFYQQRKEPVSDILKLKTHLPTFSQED
- assay.explanation: Indirect quantitation of 2',3'-cGAMP hydrolysis (AMP-Glo Assay kit)
- Assay type: biochemical
- experimental.setup: cGAMP substrate; Ki from IC50 by Cheng-Prusoff; read-out: ENPP1 Inhibition -cGAMP: Ki
Please respond with reported Ki for every item in the list.

Given item COc1cc2ncnc(N3CCC(CCNS(=O)(=O)N4CCOCC4)CC3)c2cc1OC , the value recorded as its Ki is 100 to 1000 nM

Given item COc1cc2ncnc(N(C)c3ccc(NS(N)(=O)=O)cc3)c2cc1OC , the value recorded as its Ki is > 1000 nM

Given item COc1cc2ncnc(-c3ccc(NS(N)(=O)=O)cc3)c2cc1OC , the value recorded as its Ki is 100 to 1000 nM

Given item COc1ccc2c(N3CCC4(CC3)CCN(S(N)(=O)=O)C4)ncnc2c1 , the value recorded as its Ki is < 100 nM

Given item COc1cc2nccc(N3CCC(CN4CCCNS4(=O)=O)CC3)c2cc1OC , the value recorded as its Ki is > 1000 nM

Given item N#Cc1cnc2cc3c(cc2c1N1CCC(CCNS(N)(=O)=O)CC1)OCO3 , the value recorded as its Ki is > 1000 nM

Given item COc1ccc2c(-c3ccc4c(c3F)CN(S(N)(=O)=O)CC4)ccnc2c1 , the value recorded as its Ki is < 100 nM

Given item NS(=O)(=O)NCCC1CCN(c2ccnc3cc4c(cc23)OCO4)CC1 , the value recorded as its Ki is > 1000 nM

Given item COc1ccc2c(-c3ccc(CN(C4CC4)S(N)(=O)=O)cc3)ccnc2c1 , the value recorded as its Ki is < 100 nM

Given item COc1cc2ncnc(N3CCc4c(cccc4S(=O)(=O)N4CCN(C)CC4)C3)c2cc1OC , the value recorded as its Ki is > 1000 nM

Given item COc1cc2nccc(Oc3ccc(N(O)C=O)cc3)c2cc1OC , the value recorded as its Ki is < 100 nM

Given item COc1cc2nccc(Oc3ccc(N)cc3)c2cc1OC , the value recorded as its Ki is > 1000 nM

Given item COc1cc2ncc(C#N)c(-c3ccc4c(c3)CN(S(N)(=O)=O)CC4)c2cc1OC , the value recorded as its Ki is < 100 nM

Given item COc1cc2nccc(-c3ccc(CNS(N)(=O)=O)c(F)c3)c2cc1OC , the value recorded as its Ki is < 100 nM

Given item CNC(=O)c1cc(N2CCC(CCNS(N)(=O)=O)CC2)ncn1 , the value recorded as its Ki is > 1000 nM

Given item COc1cc2nccc(Oc3ccc(NS(N)(=O)=O)cc3F)c2cc1OC , the value recorded as its Ki is < 100 nM

Given item COc1ccc2c(Oc3ccc(NS(N)(=O)=O)cc3)ncnc2c1 , the value recorded as its Ki is < 100 nM

Given item NS(=O)(=O)NCCC1CCN(C(=O)c2ccccc2)CC1 , the value recorded as its Ki is > 1000 nM

Given item COc1ccc2c(Oc3ccc(NS(N)(=O)=O)c(F)c3)ccnc2c1 , the value recorded as its Ki is < 100 nM

Given item NS(=O)(=O)N1CCC2(CCN(c3ncnc4cc(F)ccc34)CC2)C1 , the value recorded as its Ki is < 100 nM

Given item COc1nc2ncnc(N3CCC(CCNS(N)(=O)=O)CC3)c2n1C , the value recorded as its Ki is 100 to 1000 nM

Given item COc1ccc2c(Oc3ccc(S(N)(=O)=O)cc3)ncnc2c1 , the value recorded as its Ki is < 100 nM

Given item COc1ccc2c(Oc3ccc(NS(N)(=O)=O)c(Cl)c3)ccnc2c1 , the value recorded as its Ki is < 100 nM
